Test: Inhibition of electron transport protein complex 1 in human T47D cells assessed as decrease in oxygen consumption by mitochondrial respiration assay
Format: cell-based
Task for the reader: assign each of the following molecules its reported IC50.

Here are 3 molecules together with their reported answers.
N#CCCCCCC/C=C\CCCCCCCCCCCCCCCc1ccc(C=O)[nH]1 [MYCALENITRILE 10] | > 30 µM
N#CCCCC/C=C\C/C=C\CCCCCCCCCCc1ccc(C=O)[nH]1 [Mycalenitrile-6] | < 10 µM
N#CCCCC/C=C\C/C=C\CCCCCCCCCCCCc1ccc(C=O)[nH]1 [MYCALENITRILE 7] | < 10 µM

// next item, IC50 requested
Incoming: Field request: IC50 | item: `N#CCCCCCCCCCCCCCCCCCCCCc1ccc(C=O)[nH]1`
Outgoing: > 30 µM
